The measurements presented in this section are drawn from patent US20170218055A1.

The entries below come with measured Ka values attached.
Target: T1, CKKAA immunoglobulin binding domain of SpAKKAA (Staphylococcus aureus, UniProt A0A0H3K686 214-323)
T1 construct: the construct is said to span residues 234-291 of mature SpA and its limits may differ from the entry; not shown: N-terminal six histidyl tag (pET15b)
Test: ELISA, antigen-coated plate, mAb titrated
Write down the numeric answer in M⁻¹ and omit the unit.

Example binders with recorded Ka:
BINDER	SCALE UNIT	Ka
mAb 3A6 (antibody, V domains shown, Mouse IgG1 hybridoma mAb) VH: QIQLVQSGPELKKPGETVKISCKASGYNFTDYSMHWVKQAPGKGLKWVGWINTETAESTYADDFKGRFAFSLETSASTAYLQINSLKDEDTATFFCAHFDCWGQGTTLTVSS VL: DVVMTQISLSLPVTLGDQASISCRASQSLVHSNGNTYLNWYLQKPGQSPKLLIHKVSNRFSGVPDRFSGSGSGTDFTLKISRVEAEDLGVYFCSQITYVPWTFGGGTKLEIK	M⁻¹	4e+07
mAb 8E2 (antibody, V domains shown, Mouse IgG1 hybridoma mAb) VH: KVQLQQSGAGLVKPGASVKLSCKASGYTFTEYSIHWVKQSSGQGLEWIGWFYPGSGYIKYNEKFKDKATLTADKSSSTVYMEFSRLTSEDSAVYFCARHGYGNYVGYAMDYWGQGTSVTVSS VL: DIQMTQSPASLSASVGETVTITCRASEIIYSYLAWYQQKQGKSPQLLVYFAKTLAEGVPSRFSGSGSGTQFSLKINSLQPEDFGIYYCQHHYGTPYTFGGGTKLEIK	M⁻¹	1.26e+09
mAb 2F2 (antibody, V domains shown, Mouse IgG2b hybridoma mAb) VH: VKLVESGGDLVKPGGSLKLSCAASRFTFSSYVMSWVRQTPEKRLEWVASIGSGGTTYYPDTVKGRFTISRDNARNILYLQMSSLRSDDTAMYYCTRGRGYGFAWYFDVWGAGTTVTVSS VL: TIVLTQSPAIMSASPGEKVTMTCSASSSVSYMYWYQQKPGSSPRLLIYDTSNLASGVPVRFSGSGSGTSYSLTISRMEAEDAATYYCQQWSSYPPTFGGGTKLEIK	M⁻¹	1.8e+09

From here, focus on the item given below.
Ask: What measured Ka goes with mAb 7E2 (antibody, V domains shown, Mouse IgG1 hybridoma mAb) VH: QIQLVQSGPELKKPGETVKISCKASGYTFTDYSVHWVKQAPGKGLKWMAWINTATGEPTFADDFKGRFAFSLETSARTAYLQINNLKNEDTATYFCAPQLTGPFAYWGHGTLVTVSA VL: DIQMTQSPASLSASVGETVTITCRASENIHNYLAWYQQKQGKSPQLLVYNAKTLTDGVPSRFSGSGSGTQFSLKINSLQAGDFGSYYCQHSWSIPYTFGGGTRLQIR ?
Result: 2.8e+08
